B1: HDV Ribozyme (parent)
chain: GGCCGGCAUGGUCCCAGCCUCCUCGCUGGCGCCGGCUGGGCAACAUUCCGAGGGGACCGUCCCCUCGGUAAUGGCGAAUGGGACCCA

# Variants of: B1
# measurement.description: self-cleavage, relative activity (ratio to wild type); higher = more cleavage; co-transcriptional
Please provide measured self-cleavage for the entries that follow.
Lab note: write the figure by itself, no unit.

Entry C4G C13G — recorded self-cleavage = 0

Entry G11U G25A — recorded self-cleavage = 0

Entry A43C A71G — recorded self-cleavage = 0.762

Entry U37A G53A — recorded self-cleavage = 0.0594

Entry G17C G53C — recorded self-cleavage = 0.178

Entry C24U G80U — recorded self-cleavage = 0.102

Entry U27A A70U — recorded self-cleavage = 0.985

Entry U9A G11A — recorded self-cleavage = 0.539

Entry C48G G73A — recorded self-cleavage = 0.623

Entry G53C C58U — recorded self-cleavage = 1.14

Entry U47C U69A — recorded self-cleavage = 0.762

Entry G25U G74A — recorded self-cleavage = 0.0707

Entry G38C A87U — recorded self-cleavage = 0.252

Entry U23C A87U — recorded self-cleavage = 0.953

Entry U27C G54C — recorded self-cleavage = 0.538

Entry G34C C58G — recorded self-cleavage = 0.287

Entry C13G C66A — recorded self-cleavage = 0.0339

Entry U12G G73U — recorded self-cleavage = 0.166

Entry U79G G82U — recorded self-cleavage = 0.271

Entry A16C A83C — recorded self-cleavage = 0.227

Entry G11U A42C — recorded self-cleavage = 0.0308

Entry G29C C36U — recorded self-cleavage = 0.0755

Entry G40A U72C — recorded self-cleavage = 0.504

Entry C7G G28A — recorded self-cleavage = 0.0536

Entry C19G U72C — recorded self-cleavage = 0.101

Entry G68A A77U — recorded self-cleavage = 0.394

Entry C14U A71U — recorded self-cleavage = 1.1

Entry G25A G68U — recorded self-cleavage = 0.247

Entry C64A A70C — recorded self-cleavage = 0.623

Entry C36G C49G — recorded self-cleavage = 0.0773

Entry A43G A45C — recorded self-cleavage = 0.0504

Entry G25C C49U — recorded self-cleavage = 0.222

Entry G38A G39A — recorded self-cleavage = 0.0963

Entry G6U G59C — recorded self-cleavage = 0.475

Entry G1A U79C — recorded self-cleavage = 0.119

Entry A51G C58A — recorded self-cleavage = 0.98

Entry U20A G67U — recorded self-cleavage = 0.115

Entry G5U C61U — recorded self-cleavage = 0.399

Entry C26G U69G — recorded self-cleavage = 0.787

Entry C21G A51U — recorded self-cleavage = 0.0354

Entry G25A C48G — recorded self-cleavage = 0.122

Entry C7U G11C — recorded self-cleavage = 0.119

Entry U23G U46A — recorded self-cleavage = 0.712

Entry G6U U9C — recorded self-cleavage = 0.465

Entry U9A C66A — recorded self-cleavage = 0.95

Entry C63G A77G — recorded self-cleavage = 0.268

Entry U9C A71C — recorded self-cleavage = 0.791

Entry C7U G52U — recorded self-cleavage = 0.562

Entry C21U U72A — recorded self-cleavage = 0.141

Entry G40U C49G — recorded self-cleavage = 0.888

Entry U47A C48G — recorded self-cleavage = 0.598

Entry C21A G39A — recorded self-cleavage = 0.0277

Entry A45U U79A — recorded self-cleavage = 0.192

Entry U20C G35C — recorded self-cleavage = 0

Entry A8U C48G — recorded self-cleavage = 1.25

Entry A42U G59A — recorded self-cleavage = 0.845

Entry G59C G73C — recorded self-cleavage = 0.575

Entry U27C A71C — recorded self-cleavage = 0.458

Entry A43U G80A — recorded self-cleavage = 0.0237

Entry G50U C61U — recorded self-cleavage = 0.59

Entry G28A C62G — recorded self-cleavage = 0.111

Entry G10C A71U — recorded self-cleavage = 0.767

Entry C33G G81C — recorded self-cleavage = 0.151

Entry C41U U72C — recorded self-cleavage = 0.375

Entry G59A U65C — recorded self-cleavage = 1.14

Entry C30U G81C — recorded self-cleavage = 0.148

Entry G28C G39A — recorded self-cleavage = 0.0744

Entry G50C G52U — recorded self-cleavage = 0.554

Entry C19G A45C — recorded self-cleavage = 0.0583

Entry C19A G74C — recorded self-cleavage = 0.125

Entry U20C G31A — recorded self-cleavage = 0.0415

Entry U9C C18G — recorded self-cleavage = 0.138

Entry U47A A87U — recorded self-cleavage = 1.03

Entry U37G A45G — recorded self-cleavage = 0.0692

Entry G55C A78U — recorded self-cleavage = 0.324

Entry C48U G54A — recorded self-cleavage = 0.813

Entry C41A A42G — recorded self-cleavage = 0.269

Entry G10U C24G — recorded self-cleavage = 0.0886

Entry C36A A87C — recorded self-cleavage = 0.147

Entry C33G C85U — recorded self-cleavage = 0.122

Entry C18U U47C — recorded self-cleavage = 0.332
